Measured IC50 by item
Molecular target: Pim-3 (Homo sapiens)
Construct: full-length human recombinant His6-labelled Pim-1, Pim-2 or Pim-3 protein; His6
Test: TR-FRET assay of Pim kinase activity (phosphorylation of Bad Ser112), Pim-3
Settings: ATP 40 μM, read-out: IC50 Pim3

Examples with answers:
CN1CCC2(CCN(C(=O)c3ccc(-c4c(F)cnc5[nH]c6cnc(-c7cccnc7)cc6c45)cc3)C2)C1 (stereo not drawn) | < 100 nM
CN(C)C1CCCN(C(=O)c2ccc(-c3c(F)cnc4[nH]c5cnc(-c6cccnc6)cc5c34)cc2)C1 (stereo not drawn) | < 100 nM
NCCNC(=O)c1ccc(-c2c(F)cnc3[nH]c4cnc(-c5cccnc5)cc4c23)cc1 | < 100 nM

// query IC50 value for entry `CCN1CCC[C@H]1CNC(=O)c1ccc(-c2c(F)cnc3[nH]c4cnc(-c5cccnc5)cc4c23)cc1`
< 100 nM

// query IC50 value for entry `CN(C)CCNC(=O)c1ccc(-c2c(F)cnc3[nH]c4cnc(-c5cccnc5)cc4c23)cc1F`
< 100 nM

###

Measured pIC50 by item
Target: Pim-3 (Homo sapiens)
Construct: full-length human recombinant His6-labelled Pim-1, Pim-2 or Pim-3 protein; His6
Assay: TR-FRET assay of Pim kinase activity (phosphorylation of Bad Ser112), Pim-3
Conditions: ATP 40 μM, read-out: IC50 Pim3
pIC50: −log10 of the molar value.

CN(CC1CCCCN1C)C(=O)c1ccc(-c2c(F)cnc3[nH]c4cnc(-c5cccnc5)cc4c23)cc1 (stereo not drawn) [Example 64] | > 7.00
CN1CCN(NC(=O)c2ccc(-c3c(F)cnc4[nH]c5cnc(-c6cnn(C)c6)cc5c34)cc2)CC1 [Example 99] | > 7.00

Shift focus to the following entry.
// query pIC50 value for entry CCNCCNC(=O)c1ccc(-c2c(F)cnc3[nH]c4cnc(-c5cccnc5)cc4c23)cc1 [Example 87]
> 7.00

###

Measured pIC50 by item
Molecular target: CDK1 (Homo sapiens)
Sequence (P06493 whole entry, species assumed): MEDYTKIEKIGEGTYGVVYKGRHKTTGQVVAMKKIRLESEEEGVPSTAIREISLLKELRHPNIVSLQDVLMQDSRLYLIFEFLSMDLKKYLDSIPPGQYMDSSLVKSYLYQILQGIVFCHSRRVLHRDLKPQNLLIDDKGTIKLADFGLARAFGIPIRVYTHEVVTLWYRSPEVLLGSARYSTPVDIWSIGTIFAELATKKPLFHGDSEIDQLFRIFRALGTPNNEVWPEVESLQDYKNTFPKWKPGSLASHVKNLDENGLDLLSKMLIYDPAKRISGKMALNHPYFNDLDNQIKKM
Sequence (P14635 whole entry partner, species assumed): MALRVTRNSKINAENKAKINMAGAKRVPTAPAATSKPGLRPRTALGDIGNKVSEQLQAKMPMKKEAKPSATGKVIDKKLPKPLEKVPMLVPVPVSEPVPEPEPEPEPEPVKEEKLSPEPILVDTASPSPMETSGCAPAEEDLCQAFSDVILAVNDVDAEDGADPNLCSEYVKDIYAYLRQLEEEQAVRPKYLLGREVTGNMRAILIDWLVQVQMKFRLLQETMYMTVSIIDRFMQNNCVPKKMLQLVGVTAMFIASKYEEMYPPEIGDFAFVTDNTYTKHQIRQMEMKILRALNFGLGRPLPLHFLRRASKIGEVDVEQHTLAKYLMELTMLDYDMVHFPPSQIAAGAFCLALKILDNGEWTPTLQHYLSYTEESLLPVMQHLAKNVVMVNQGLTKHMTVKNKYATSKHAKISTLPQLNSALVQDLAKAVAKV
pIC50: −log10 of the molar value.

Examples with answers:
O=C(NCCNCCO)c1ccc(-c2c(F)cnc3[nH]c4cnc(-c5cccnc5)cc4c23)cc1 | 5.30 to 6.00
NCC(F)(F)CNC(=O)c1ccc(-c2c(F)cnc3[nH]c4cnc(-c5cccnc5)cc4c23)cc1 | 6.00 to 7.00

// query pIC50 value for entry `Cn1cc(-c2cc3c(cn2)[nH]c2ncc(F)c(-c4ccc(C(N)=O)cc4)c23)cn1`
6.00 to 7.00

// query pIC50 value for entry `CN(C)CC(C)(C)CNC(=O)c1ccc(-c2c(F)cnc3[nH]c4cnc(-c5cccnc5)cc4c23)cc1`
5.30 to 6.00

// query pIC50 value for entry `CNCCNC(=O)c1ccc(-c2c(F)cnc3[nH]c4cnc(-c5cccnc5)cc4c23)cc1`
6.00 to 7.00

// query pIC50 value for entry `CN1CCC(N(C)C(=O)c2ccc(-c3c(F)cnc4[nH]c5cnc(-c6cccnc6)cc5c34)cc2)CC1`
5.30 to 6.00

// query pIC50 value for entry `O=C(NCCN1CCCCCC1)c1ccc(-c2c(F)cnc3[nH]c4cnc(-c5cccnc5)cc4c23)cc1`
6.00 to 7.00

###

Target: Pim-3 (Homo sapiens, UniProt Q86V86)
Construct: full-length human recombinant His6-labelled Pim-1, Pim-2 or Pim-3 protein; His6
Experiment: TR-FRET assay of Pim kinase activity (phosphorylation of Bad Ser112), Pim-3
Settings: ATP 40 μM, read-out: IC50 Pim3
Endpoint name: IC50

CC1CCCCN1CCNC(=O)c1ccc(-c2c(F)cnc3[nH]c4cnc(-c5cccnc5)cc4c23)cc1 (stereo not drawn) | < 100 nM
CS(=O)(=O)NCCNC(=O)c1ccc(-c2c(F)cnc3[nH]c4cnc(-c5cccnc5)cc4c23)cc1 | < 100 nM
O=C(NCCN1CCOCC1)c1ccc(-c2c(F)cnc3[nH]c4cnc(-c5cccnc5)cc4c23)cc1 | < 100 nM
CN1CC(NC(=O)c2ccc(-c3c(F)cnc4[nH]c5cnc(-c6cccnc6)cc5c34)cc2)C1 | < 100 nM

Item: CN1CC2CCN(C(=O)c3ccc(-c4c(F)cnc5[nH]c6cnc(-c7cccnc7)cc6c45)cc3)CC2C1 (stereo not drawn) Test system: Pim-3 (Homo sapiens, UniProt Q86V86) Read-out: IC50 Value: ?
< 100 nM

Item: `CC(=O)NCCNC(=O)c1ccc(-c2c(F)cnc3[nH]c4cnc(-c5cccnc5)cc4c23)cc1` Test system: Pim-3 (Homo sapiens, UniProt Q86V86) Read-out: IC50 Value: ?
100 to 1000 nM

Item: `O=C(c1cccc(-c2c(F)cnc3[nH]c4cnc(-c5cccnc5)cc4c23)c1)N1CCOCC1` Test system: Pim-3 (Homo sapiens, UniProt Q86V86) Read-out: IC50 Value: ?
1000 to 5000 nM

Item: `CN1CCC(N(C)C(=O)c2ccc(-c3c(F)cnc4[nH]c5cnc(-c6cccnc6)cc5c34)cc2)CC1` Test system: Pim-3 (Homo sapiens, UniProt Q86V86) Read-out: IC50 Value: ?
< 100 nM

###

Measured pIC50 by item
Biological target: Pim-2 (Homo sapiens, UniProt Q9P1W9)
Construct: full-length human recombinant His6-labelled Pim-1, Pim-2 or Pim-3 protein; His6
Sequence (Q9P1W9 whole entry): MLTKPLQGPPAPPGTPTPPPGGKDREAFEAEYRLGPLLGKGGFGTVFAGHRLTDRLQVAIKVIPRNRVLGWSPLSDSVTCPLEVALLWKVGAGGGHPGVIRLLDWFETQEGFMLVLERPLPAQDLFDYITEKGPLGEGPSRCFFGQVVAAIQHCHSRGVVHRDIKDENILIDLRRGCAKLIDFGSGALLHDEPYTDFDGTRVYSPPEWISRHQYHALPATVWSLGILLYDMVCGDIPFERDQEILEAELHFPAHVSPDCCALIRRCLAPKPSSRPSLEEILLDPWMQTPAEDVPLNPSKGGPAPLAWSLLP
Experiment: TR-FRET assay of Pim kinase activity (phosphorylation of Bad Ser112), Pim-2
Settings: ATP 40 μM, read-out: IC50 Pim2
Procedure: In order to determine the inhibition of Pim kinase activity, the compounds of the invention are tested in accordance with a routinely-used in-vitro TR-FRET assay (“Time Resolved-Fluorescence Resonance Energy Transfer”). […] For the assay, the following reagents are used: […]
pIC50: −log10 of the molar value.

Examples with answers:
CN1CCC(NC(=O)c2ccc(-c3c(F)cnc4[nH]c5cnc(-c6cccnc6)cc5c34)cc2)CC1 [Example 22] | 6.00 to 7.00
CCN(CCN(C)C)C(=O)c1ccc(-c2c(F)cnc3[nH]c4cnc(-c5cccnc5)cc4c23)cc1 [Example 67] | > 7.00
COCCNC(=O)c1ccc(-c2c(F)cnc3[nH]c4cnc(-c5cccnc5)cc4c23)cc1 [Example 14] | 5.30 to 6.00
CN1CCC2(CCN(C(=O)c3ccc(-c4c(F)cnc5[nH]c6cnc(-c7cccnc7)cc6c45)cc3)C2)C1 (stereo not shown) [Example 77] | 5.30 to 6.00
CN1C[C@@H]2CCN(C(=O)c3ccc(-c4c(F)cnc5[nH]c6cnc(-c7cccnc7)cc6c45)cc3)[C@@H]2C1 [Example 47] | > 7.00

// query pIC50 value for entry CN(C)[C@@H]1CCN(C(=O)c2ccc(-c3c(F)cnc4[nH]c5cnc(-c6cccnc6)cc5c34)cc2)C1 [Example 46]
5.30 to 6.00

// query pIC50 value for entry O=C(NCc1ncc[nH]1)c1ccc(-c2c(F)cnc3[nH]c4cnc(-c5cccnc5)cc4c23)cc1 [Example 76]
6.00 to 7.00

###

Biological target: Pim-2 (Homo sapiens, UniProt Q9P1W9)
Construct: full-length human recombinant His6-labelled Pim-1, Pim-2 or Pim-3 protein; His6
Assay: TR-FRET assay of Pim kinase activity (phosphorylation of Bad Ser112), Pim-2
Conditions: ATP 40 μM, read-out: IC50 Pim2
pIC50: −log10 of the molar value.
Endpoint name: pIC50

Examples with answers:
CC(CN(C)C)NC(=O)c1ccc(-c2c(F)cnc3[nH]c4cnc(-c5cccnc5)cc4c23)cc1 (stereo not drawn) [Example 68] | > 7.00
CCN1CCCC(NC(=O)c2ccc(-c3c(F)cnc4[nH]c5cnc(-c6cccnc6)cc5c34)cc2)C1 (stereo not drawn) [Example 54] | 6.00 to 7.00
CS(=O)(=O)NCCNC(=O)c1ccc(-c2c(F)cnc3[nH]c4cnc(-c5cccnc5)cc4c23)cc1 [Example 62] | 5.30 to 6.00
CN1CCN(NC(=O)c2ccc(-c3c(F)cnc4[nH]c5cnc(-c6cnn(C)c6Cl)cc5c34)cc2)CC1 [Example 106] | > 7.00
N[C@@H]1CCCC[C@H]1NC(=O)c1ccc(-c2c(F)cnc3[nH]c4cnc(-c5cccnc5)cc4c23)cc1 [Example 83] | > 7.00
CCN(CC1CCN(C)C1)C(=O)c1ccc(-c2c(F)cnc3[nH]c4cnc(-c5cccnc5)cc4c23)cc1 (stereo not drawn) [Example 79] | 6.00 to 7.00
NCC(F)(F)CNC(=O)c1ccc(-c2c(F)cnc3[nH]c4cnc(-c5cccnc5)cc4c23)cc1 [Example 90] | 6.00 to 7.00
CCNCCNC(=O)c1ccc(-c2c(F)cnc3[nH]c4cnc(-c5cccnc5)cc4c23)cc1 [Example 87] | > 7.00
O=C(NCCCN1CCCC1=O)c1ccc(-c2c(F)cnc3[nH]c4cnc(-c5cccnc5)cc4c23)cc1 [Example 49] | < 5.30
CN(C)CCNC(=O)c1cccc(-c2c(F)cnc3[nH]c4cnc(-c5cccnc5)cc4c23)c1 [Example 12] | 5.30 to 6.00

// query pIC50 value for entry CN1CCC(N(C)C(=O)c2ccc(-c3c(F)cnc4[nH]c5cnc(-c6cccnc6)cc5c34)cc2)CC1 [Example 81]
5.30 to 6.00

// query pIC50 value for entry CC(=O)NCCNC(=O)c1ccc(-c2c(F)cnc3[nH]c4cnc(-c5cccnc5)cc4c23)cc1 [Example 48]
5.30 to 6.00

// query pIC50 value for entry CN1CCCC1CCNC(=O)c1ccc(-c2c(F)cnc3[nH]c4cnc(-c5cccnc5)cc4c23)cc1 (stereo not drawn) [Example 65]
6.00 to 7.00

// query pIC50 value for entry O=C(c1cccc(-c2c(F)cnc3[nH]c4cnc(-c5cccnc5)cc4c23)c1)N1CCOCC1 [Example 15]
< 5.30

// query pIC50 value for entry CN(C)[C@H]1CCN(C(=O)c2ccc(-c3c(F)cnc4[nH]c5cnc(-c6cccnc6)cc5c34)cc2)C1 [Example 69]
6.00 to 7.00

Data credit: patent US20120208809A1
